Target: T1, insulin receptor on human lymphocyte cells (IM-9) (human, UniProt P06213 28-1382)
T1 construct: whole, on cells; Endogenous receptor of IM-9 cells; also called IR; insulin receptors
Assay: whole cell receptor binding assay on IM-9 cells with 125I-insulin; EC50 defined as the concentration promoting 50% of the 125I-insulin to bind

- binder: "IRBP-1-68 polypeptide (SEQ ID NO:1) (peptide) SRCQGKSSWPQLVGSTGAAAKAVIERENPRVRAVIIKVGSGATKDFRCDRVRVWVTERGIVARPPTIG"
  unit of measure: "nM"
  EC50: 4.15
